Test system: CAKI-1 renal
procedureText: NCI-60 one-dose screen, 48 h (100 = growth as untreated, 0 = no growth, -100 = all killed)
setupConditions: 10 µM
Compounds without any hit were thinned out: in the full panel of roughly 83,000, 20% have a hit.
Flag rule - growth less than 70% flags 1; the remaining entries get 0.

Qu. Determine if `Cc1cc(Cl)ccc1Nc1nc(C(F)(F)F)ccc1C(=O)N/N=C/c1cccc(O)c1` shows growth strictly lower than 70%.
Ans. 1

---
Qu. Please let me know if `CC(=O)Nc1ccc2c(c1)C(=O)c1cccc(C(=O)O)c1-2` shows growth below 70%.
Ans. 0

Qu. Is growth strictly under 70% for the entry COC1=CC(=O)OC(c2ccc(OC)cc2)C1 (configuration not stated) ?
Ans. 0

Qu. For `Cc1ccc(NC(=S)NNC(=S)Nc2ccc(C)cc2)cc1` , is the recorded growth below the cut-off of 70%?
Ans. 1

Qu. Lab note: confirm whether the reported growth for this compound is below 70%, equality not counting. compound: `COc1cccc(-c2nc3sccn3c2-c2cccc(S(C)(=O)=O)c2)c1`
Ans. 0

Qu. Find out if reported growth for C=CCN(CC=C)C(=O)[C@H](CC)[C@@H]1CC[C@@H](C)[C@@H]([C@H](C)[C@@H](O)[C@@H](C)C(=O)[C@H](CC)C2O[C@]3(C=CC(=O)[C@]4(CC[C@@](C)([C@H]5CC[C@](O)(CC)[C@H](C)O5)O4)O3)[C@H](C)C[C@@H]2C)O1 (some centres not stated) is less than 70%
Ans. 1

Qu. Please indicate whether the reported growth of CC1/C=C/C=C/C=C/C=C/C=C/C=C/C=C/C(O[C@@H]2O[C@H](C)[C@H](O)[C@@H](O)[C@@H]2N)CC(O)C(C(=O)O)C(O)CC(=O)CC(O)CC(O)CC(O)CC(=O)CCCC(=O)CC(=O)OC1C(C)CC(C)C(O)CC(=O)c1ccc(N)cc1 (some centres not stated) is strictly below 70%.
Ans. 1

###

Test system: CCRF-CEM leukemia
procedureText: NCI-60 one-dose screen, 48 h (100 = growth as untreated, 0 = no growth, -100 = all killed)
setupConditions: 10 µM
Compounds without any hit were thinned out: in the full panel of roughly 83,000, 20% have a hit.
reportedProperty: growth (%)
Expressed in %, but write only the number.

Qu. Output growth of `COc1cc(-c2nn(-c3cccc(NC(=O)CN4CCOCC4)c3)cc2-c2cccnc2)ccc1Cl`
Ans. 70.9

###

Measured growth values are reported for all entries that follow.
System: MALME-3M melanoma
procedureText: NCI-60 one-dose screen, 48 h (100 = growth as untreated, 0 = no growth, -100 = all killed)
setupConditions: 10 µM
Procedure: Cells are grown in 96 well plates and exposed to the test compound for 48 hours. Compounds are tested at a single concentration, which is 10^-5 M for most compounds. The reported endpoint is percent growth (GI% or GIPRCNT), where numbers from 0 - 100% represent growth inhibition, and numbers from -100% - 0 represent cell death. For example, a value of 40 represents 60% growth inhibition. A value of 0 means no net growth occurred over the course of the experiment. […]
The panel holds about 83,000 compounds, 20% with a hit somewhere; the sample as a whole holds those more often.
Response body: numeric value in %, unit text excluded.

Completed entries (count: 3):
Qu. Please report growth with MALME-3M melanoma for item `COc1cc(-c2nn(-c3cccc(NC(=O)CN4CCOCC4)c3)cc2-c2cccnc2)ccc1Cl` .
Ans. 80.5

Qu. Tell me its growth on MALME-3M melanoma: `Cc1cc(O)ccc1C1=NN(c2ccc(S(C)(=O)=O)cc2)C(=O)CC1`
Ans. 52.7

Qu. Please look at `COc1cc2c(cc1NC(=O)C(Cl)Cl)-c1ccc(NC(=O)C(Cl)Cl)cc1C2` and tell me its recorded growth on MALME-3M melanoma.
Ans. 115

// below: growth requested for another compound
Qu. Return reported growth for target or system MALME-3M melanoma, item `CN(C)CCOc1ccccc1NC1=C(Cl)C(=O)C(Nc2ccccc2OCCN(C)C)=C(Cl)C1=O` .
Ans. 64.7
